Every entry's value here was drawn from paper PMC7531004.

conditions: cell viability/%
Where a SMILES comes first, the peptide text is derived from it. [ ]: non-standard residue; d: D form. The star is where a group is joined. NHCH2CH2OH = OCCN*; For = O=C*
Record form. Attribute: viability. Fill in for each entry.
Numbers only, in %.

In the examples that follow, each entry is paired with its recorded viability.
# compound, viability [%]
rows = [
    ("CC(C)C[C@@H](NC(=O)[C@@H](NC(=O)[C@H](NC(=O)[C@H](C)NC(=O)[C@H](NC(=O)[C@H](C)NC(=O)CNC(=O)[C@@H](NC=O)C(C)C)C(C)C)C(C)C)C(C)C)C(=O)N[C@@H](Cc1c[nH]c2ccccc12)C(=O)N[C@@H](C(=O)N[C@@H](Cc1c[nH]c2ccccc12)C(=O)N[C@@H](C(=O)N[C@@H](Cc1c[nH]c2ccccc12)C(=O)N[C@@H](C(=O)N[C@@H](Cc1c[nH]c2ccccc12)C(=O)NCCO)C(C)C)C(C)C)C(C)C [compound 885] (For-VGA[dV]A[dV]V[dL]W[dV]W[dV]W[dV]W-NHCH2CH2OH)", 93.4),
    ("CC(C)C[C@@H](NC(=O)[C@H](C)NC(=O)[C@H](NC(=O)[C@H](C)NC(=O)CNC(=O)[C@@H](NC=O)C(C)C)C(C)C)C(=O)N[C@H](C(=O)N[C@H](CC(C)C)C(=O)N[C@@H](Cc1c[nH]c2ccccc12)C(=O)N[C@@H](C(=O)N[C@@H](Cc1c[nH]c2ccccc12)C(=O)N[C@@H](C(=O)N[C@@H](Cc1c[nH]c2ccccc12)C(=O)N[C@H](CC(C)C)C(=O)N[C@@H](Cc1c[nH]c2ccccc12)C(=O)NCCO)[C@H](C)O)C(C)C)C(C)C [compound 3205] (For-VGA[dV]A[dL]V[dL]W[dV]W[dT]W[dL]W-NHCH2CH2OH)", 90.2),
    ("CC(C)C[C@@H](NC(=O)[C@H](C)NC(=O)CNC(=O)[C@@H](NC=O)C(C)C)C(=O)N[C@@H](C)C(=O)N[C@H](CC(C)C)C(=O)N[C@H](C(=O)N[C@H](CC(C)C)C(=O)N[C@@H](Cc1c[nH]c2ccccc12)C(=O)N[C@@H](C(=O)N[C@@H](Cc1c[nH]c2ccccc12)C(=O)N[C@@H](C(=O)N[C@@H](Cc1c[nH]c2ccccc12)C(=O)N[C@@H](C(=O)N[C@@H](Cc1c[nH]c2ccccc12)C(=O)NCCO)[C@H](C)O)[C@H](C)O)C(C)C)C(C)C [compound 7253] (For-VGA[dL]A[dL]V[dL]W[dV]W[dT]W[dT]W-NHCH2CH2OH)", 45.4),
]

Then this compound:
viability reported for this compound CC(C)C[C@@H](NC(=O)[C@H](C)NC(=O)CNC(=O)[C@@H](NC=O)C(C)C)C(=O)N[C@@H](C)C(=O)N[C@H](CC(C)C)C(=O)N[C@H](C(=O)N[C@H](CC(C)C)C(=O)N[C@@H](Cc1c[nH]c2ccccc12)C(=O)N[C@@H](C(=O)N[C@@H](Cc1c[nH]c2ccccc12)C(=O)N[C@@H](C(=O)N[C@@H](Cc1c[nH]c2ccccc12)C(=O)N[C@H](CC(C)C)C(=O)N[C@@H](Cc1c[nH]c2ccccc12)C(=O)NCCO)[C@H](C)O)[C@H](C)O)C(C)C [compound 3244] (For-VGA[dL]A[dL]V[dL]W[dT]W[dT]W[dL]W-NHCH2CH2OH) : 100

====

Tested on: Streptococcus pyogenes SSI-9
Assay: Antibacterial activity assay of bead-derived peptides (three concentrations)
Format: cell-based
Set-up: key: +++: inhibition by the 640-fold diluted peptide solution; ++: inhibition by the 160-fold diluted solution; +: inhibition by the 40-fold diluted solution; -: no inhibition
Conditions: S. pyogenes, bead-derived peptide solution, three concentrations
Experimental: Each type of assay must be simplified and miniaturized to assess the activities of the library peptides in a 96-well format for the high-throughput screening. Next, the peptides in groups A and B were subjected to the antibacterial assay and structural determination. Three peptide concentrations were applied to evaluate the growth inhibition of S. pyogenes and determine the antibacterial activity. […] Finally, the structures of the peptides were determined. […]
Where a SMILES comes first, the peptide text is derived from it. [ ]: non-standard residue; d: D form. The star is where a group is joined. NHCH2CH2OH = OCCN*; For = O=C*

# molecule, antibacterial activity
measured = [
    ("CC(C)C[C@@H](NC(=O)[C@H](Cc1c[nH]c2ccccc12)NC(=O)[C@H](NC(=O)[C@H](Cc1c[nH]c2ccccc12)NC(=O)[C@@H](CC(C)C)NC(=O)[C@H](Cc1c[nH]c2ccccc12)NC(=O)[C@@H](CC(C)C)NC(=O)[C@@H](NC(=O)[C@H](NC(=O)[C@H](C)NC(=O)[C@H](NC(=O)[C@H](C)NC(=O)CNC(=O)[C@@H](NC=O)C(C)C)[C@H](C)O)C(C)C)C(C)C)C(C)C)C(=O)N[C@@H](Cc1c[nH]c2ccccc12)C(=O)NCCO [compound 1509] (For-VGA[dT]A[dV]V[dL]W[dL]W[dV]W[dL]W-NHCH2CH2OH)", "-"),
    ("CC(C)C[C@@H](NC(=O)[C@H](C)NC(=O)CNC(=O)[C@@H](NC=O)C(C)C)C(=O)N[C@@H](C)C(=O)N[C@H](CC(C)C)C(=O)N[C@H](C(=O)N[C@H](CC(C)C)C(=O)N[C@@H](Cc1c[nH]c2ccccc12)C(=O)N[C@@H](C(=O)N[C@@H](Cc1c[nH]c2ccccc12)C(=O)N[C@@H](C(=O)N[C@@H](Cc1c[nH]c2ccccc12)C(=O)N[C@@H](C(=O)N[C@@H](Cc1c[nH]c2ccccc12)C(=O)NCCO)C(C)C)[C@H](C)O)C(C)C)C(C)C [compound 8722] (For-VGA[dL]A[dL]V[dL]W[dV]W[dT]W[dV]W-NHCH2CH2OH)", "-"),
]

====

system: P388 mouse leukemia cells; settings: 92 h
Where a SMILES comes first, the peptide text is derived from it. [ ]: non-standard residue; d: D form. The star is where a group is joined. NHCH2CH2OH = OCCN*; For = O=C*
observed property: cell viability/% (%)
Give bare numbers, in %.

For every record below, what is its cell viability/%?
1. CC(C)C[C@@H](NC(=O)[C@H](C)NC(=O)CNC(=O)[C@@H](NC=O)C(C)C)C(=O)N[C@@H](C)C(=O)N[C@@H](C(=O)N[C@H](C(=O)N[C@H](CC(C)C)C(=O)N[C@@H](Cc1c[nH]c2ccccc12)C(=O)N[C@H](CC(C)C)C(=O)N[C@@H](Cc1c[nH]c2ccccc12)C(=O)N[C@@H](C(=O)N[C@@H](Cc1c[nH]c2ccccc12)C(=O)N[C@H](CC(C)C)C(=O)N[C@@H](Cc1c[nH]c2ccccc12)C(=O)NCCO)C(C)C)C(C)C)C(C)C [compound 7191] (For-VGA[dL]A[dV]V[dL]W[dL]W[dV]W[dL]W-NHCH2CH2OH)
2. CNC(=O)C[C@@H](NC(=O)[C@@H](NC(=O)[C@@H](CC(C)C)NC(=O)[C@H](C)NC(=O)[C@@H](CC(C)C)NC(=O)[C@H](C)NC(=O)CNC(=O)[C@@H](NC=O)C(C)C)C(C)C)C(=O)N[C@@H](Cc1c[nH]c2ccccc12)C(=O)N[C@@H](C(=O)N[C@@H](Cc1c[nH]c2ccccc12)C(=O)N[C@@H](C(=O)N[C@@H](Cc1c[nH]c2ccccc12)C(=O)N[C@H](CC(C)C)C(=O)N[C@@H](Cc1c[nH]c2ccccc12)C(=O)NCCO)C(C)C)C(C)C [compound 11601] (For-VGA[dL]A[dL]V[dD](NHMe)W[dV]W[dV]W[dL]W-NHCH2CH2OH)
3. CC(C)C[C@@H](NC(=O)[C@H](C)NC(=O)CNC(=O)[C@@H](NC=O)C(C)C)C(=O)N[C@@H](C)C(=O)N[C@H](CC(C)C)C(=O)N[C@H](C(=O)N[C@@H](C(=O)N[C@@H](Cc1c[nH]c2ccccc12)C(=O)N[C@@H](C(=O)N[C@@H](Cc1c[nH]c2ccccc12)C(=O)N[C@@H](C(=O)N[C@@H](Cc1c[nH]c2ccccc12)C(=O)N[C@H](CC(C)C)C(=O)N[C@@H](Cc1c[nH]c2ccccc12)C(=O)NCCO)C(C)C)[C@H](C)O)C(C)C)C(C)C [compound 10542] (For-VGA[dL]A[dL]V[dV]W[dT]W[dV]W[dL]W-NHCH2CH2OH)
4. CC(C)C[C@@H](NC(=O)[C@H](C)NC(=O)CNC(=O)[C@@H](NC=O)C(C)C)C(=O)N[C@@H](C)C(=O)N[C@@H](C(=O)N[C@H](C(=O)N[C@H](CC(C)C)C(=O)N[C@@H](Cc1c[nH]c2ccccc12)C(=O)N[C@@H](C(=O)N[C@@H](Cc1c[nH]c2ccccc12)C(=O)N[C@H](CC(C)C)C(=O)N[C@@H](Cc1c[nH]c2ccccc12)C(=O)N[C@@H](C(=O)N[C@@H](Cc1c[nH]c2ccccc12)C(=O)NCCO)C(C)C)C(C)C)C(C)C)C(C)C [compound 3633] (For-VGA[dL]A[dV]V[dL]W[dV]W[dL]W[dV]W-NHCH2CH2OH)

## Result
1. 0.0
2. 98.9
3. 100.0
4. 1.7
